Target: human sodium channels Nav 1.8 (Homo sapiens, UniProt Q9Y5Y9)
Sequence (Q9Y5Y9 whole entry): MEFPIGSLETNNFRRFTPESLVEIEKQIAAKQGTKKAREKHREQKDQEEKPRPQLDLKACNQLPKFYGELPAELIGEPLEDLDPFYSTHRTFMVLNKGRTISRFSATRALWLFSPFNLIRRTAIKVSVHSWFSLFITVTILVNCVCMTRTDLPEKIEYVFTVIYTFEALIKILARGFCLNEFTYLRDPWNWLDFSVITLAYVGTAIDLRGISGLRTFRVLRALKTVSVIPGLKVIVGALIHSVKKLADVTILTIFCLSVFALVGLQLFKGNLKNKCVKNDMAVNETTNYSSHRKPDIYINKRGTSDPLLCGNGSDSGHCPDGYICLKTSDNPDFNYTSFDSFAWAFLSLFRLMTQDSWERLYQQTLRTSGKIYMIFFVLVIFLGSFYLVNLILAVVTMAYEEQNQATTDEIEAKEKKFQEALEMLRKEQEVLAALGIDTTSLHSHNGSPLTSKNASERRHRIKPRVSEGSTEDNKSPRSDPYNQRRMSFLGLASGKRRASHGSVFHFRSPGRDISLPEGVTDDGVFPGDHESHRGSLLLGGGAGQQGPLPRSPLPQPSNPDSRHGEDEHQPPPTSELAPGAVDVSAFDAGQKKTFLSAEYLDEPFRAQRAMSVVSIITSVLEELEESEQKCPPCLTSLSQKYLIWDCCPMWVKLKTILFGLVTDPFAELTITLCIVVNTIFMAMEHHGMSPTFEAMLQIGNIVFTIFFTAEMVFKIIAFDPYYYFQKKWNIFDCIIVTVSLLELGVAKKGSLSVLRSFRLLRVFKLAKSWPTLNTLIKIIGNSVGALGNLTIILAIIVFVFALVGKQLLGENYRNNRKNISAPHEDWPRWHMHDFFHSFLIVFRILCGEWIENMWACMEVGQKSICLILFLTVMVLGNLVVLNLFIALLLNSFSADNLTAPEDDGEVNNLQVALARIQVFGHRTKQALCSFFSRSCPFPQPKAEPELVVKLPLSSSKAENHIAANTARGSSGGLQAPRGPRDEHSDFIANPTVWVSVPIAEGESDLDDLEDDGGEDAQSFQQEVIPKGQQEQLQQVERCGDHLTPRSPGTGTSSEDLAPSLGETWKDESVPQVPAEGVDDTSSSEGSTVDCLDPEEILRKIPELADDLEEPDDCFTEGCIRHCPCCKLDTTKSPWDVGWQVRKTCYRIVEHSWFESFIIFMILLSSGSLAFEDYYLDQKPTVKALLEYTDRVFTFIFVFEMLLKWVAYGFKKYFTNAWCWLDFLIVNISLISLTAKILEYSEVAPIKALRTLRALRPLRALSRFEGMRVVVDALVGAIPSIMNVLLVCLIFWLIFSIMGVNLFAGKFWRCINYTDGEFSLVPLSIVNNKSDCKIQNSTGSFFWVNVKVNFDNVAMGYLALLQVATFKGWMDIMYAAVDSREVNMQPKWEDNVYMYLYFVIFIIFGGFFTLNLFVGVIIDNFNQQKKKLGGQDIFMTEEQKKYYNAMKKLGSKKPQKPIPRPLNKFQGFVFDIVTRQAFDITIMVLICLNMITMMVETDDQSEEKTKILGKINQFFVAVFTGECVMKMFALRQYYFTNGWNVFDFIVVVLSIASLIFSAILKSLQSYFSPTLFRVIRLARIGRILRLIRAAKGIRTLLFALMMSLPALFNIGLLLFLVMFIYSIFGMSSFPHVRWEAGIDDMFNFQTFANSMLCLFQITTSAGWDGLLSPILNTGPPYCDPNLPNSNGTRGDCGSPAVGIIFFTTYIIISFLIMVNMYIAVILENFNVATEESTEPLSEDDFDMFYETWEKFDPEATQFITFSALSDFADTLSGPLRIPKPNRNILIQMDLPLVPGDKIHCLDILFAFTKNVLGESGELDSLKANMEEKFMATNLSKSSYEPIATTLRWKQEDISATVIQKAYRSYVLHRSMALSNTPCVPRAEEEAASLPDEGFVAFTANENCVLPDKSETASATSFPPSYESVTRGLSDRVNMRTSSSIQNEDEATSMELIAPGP
Assay: Automated whole-cell voltage-clamp (ScreenPatch 384P) sodium current block, Nav 1.8
Conditions: CHO cells stably expressing human Nav 1.8; inactivation step -40 mV 8 s, test step 10 mV (TP1A); eight concentrations; exposure at least five minutes; room temperature; read-out: Nav1.8 IC50
Method: Biological assays were performed on Chinese hamster ovary (CHO) cells that express human sodium channels Nav 1.8 or Nav 1.7 in a stable manner. The experimental protocol voltage-clamp using the whole cell configuration was established on the automated ScreenPatch® 384P platform (SP384PE, Nanion Technologies, Livingston, NJ) and the results were recorded with a Nanion 384-well Patch Clamp chip (NPC) (Nanion Technologies, Livingston, NJ). […]
measured.property: IC50

compound	IC50
CCOc1cc(OC)c(-c2cncc(C(=O)N/N=C/c3cc(OC)cnc3F)n2)cn1 [Compound 153]	> 1000 nM
CCOc1ccc(F)c(/C=N/NC(=O)c2cncc(-c3ccc(OCC)nc3)n2)c1 [Compound 4]	< 500 nM
CCOc1ccc(-c2nc(C(=O)N/N=C/c3cc(OC)cnc3F)cn(C)c2=O)cn1 [Compound 75]	> 1000 nM
CC(O)c1cncc(/C=N/NC(=O)c2cncc(-c3ccc(OC(F)F)nc3)n2)c1 (stereo not shown) [Compound 111]	> 1000 nM
[2H]C([2H])(C)Oc1ccc(-c2cncc(C(=O)N/N=C/c3cc(OC)cnc3F)n2)cn1 [Compound 169]	< 500 nM
COc1ccc(F)c(/C=N/NC(=O)c2cncc(-c3ccc(S(N)(=O)=O)nc3)n2)c1 [Compound 133]	> 1000 nM

Prompt: Report IC50 for CCOc1ccc(-c2nc(C(=O)N/N=C/c3cc(OC)cnc3F)cnc2O)cn1 [Compound 67] tested on human sodium channels Nav 1.8 (Homo sapiens, UniProt Q9Y5Y9).
Completion: > 1000 nM

###

biological target: human sodium channels Nav 1.7 (Homo sapiens, UniProt Q15858); construct: expressed in transfected cells; experiment: Automated whole-cell voltage-clamp (ScreenPatch 384P) sodium current block, Nav 1.7; type: cell-based; details: CHO cells stably expressing human Nav 1.7; inactivation step -40 mV 8 s, test step 0 mV (TP1A); eight concentrations; exposure at least five minutes; room temperature; read-out: Nav1.7 IC50
Sequence (Q15858 whole entry): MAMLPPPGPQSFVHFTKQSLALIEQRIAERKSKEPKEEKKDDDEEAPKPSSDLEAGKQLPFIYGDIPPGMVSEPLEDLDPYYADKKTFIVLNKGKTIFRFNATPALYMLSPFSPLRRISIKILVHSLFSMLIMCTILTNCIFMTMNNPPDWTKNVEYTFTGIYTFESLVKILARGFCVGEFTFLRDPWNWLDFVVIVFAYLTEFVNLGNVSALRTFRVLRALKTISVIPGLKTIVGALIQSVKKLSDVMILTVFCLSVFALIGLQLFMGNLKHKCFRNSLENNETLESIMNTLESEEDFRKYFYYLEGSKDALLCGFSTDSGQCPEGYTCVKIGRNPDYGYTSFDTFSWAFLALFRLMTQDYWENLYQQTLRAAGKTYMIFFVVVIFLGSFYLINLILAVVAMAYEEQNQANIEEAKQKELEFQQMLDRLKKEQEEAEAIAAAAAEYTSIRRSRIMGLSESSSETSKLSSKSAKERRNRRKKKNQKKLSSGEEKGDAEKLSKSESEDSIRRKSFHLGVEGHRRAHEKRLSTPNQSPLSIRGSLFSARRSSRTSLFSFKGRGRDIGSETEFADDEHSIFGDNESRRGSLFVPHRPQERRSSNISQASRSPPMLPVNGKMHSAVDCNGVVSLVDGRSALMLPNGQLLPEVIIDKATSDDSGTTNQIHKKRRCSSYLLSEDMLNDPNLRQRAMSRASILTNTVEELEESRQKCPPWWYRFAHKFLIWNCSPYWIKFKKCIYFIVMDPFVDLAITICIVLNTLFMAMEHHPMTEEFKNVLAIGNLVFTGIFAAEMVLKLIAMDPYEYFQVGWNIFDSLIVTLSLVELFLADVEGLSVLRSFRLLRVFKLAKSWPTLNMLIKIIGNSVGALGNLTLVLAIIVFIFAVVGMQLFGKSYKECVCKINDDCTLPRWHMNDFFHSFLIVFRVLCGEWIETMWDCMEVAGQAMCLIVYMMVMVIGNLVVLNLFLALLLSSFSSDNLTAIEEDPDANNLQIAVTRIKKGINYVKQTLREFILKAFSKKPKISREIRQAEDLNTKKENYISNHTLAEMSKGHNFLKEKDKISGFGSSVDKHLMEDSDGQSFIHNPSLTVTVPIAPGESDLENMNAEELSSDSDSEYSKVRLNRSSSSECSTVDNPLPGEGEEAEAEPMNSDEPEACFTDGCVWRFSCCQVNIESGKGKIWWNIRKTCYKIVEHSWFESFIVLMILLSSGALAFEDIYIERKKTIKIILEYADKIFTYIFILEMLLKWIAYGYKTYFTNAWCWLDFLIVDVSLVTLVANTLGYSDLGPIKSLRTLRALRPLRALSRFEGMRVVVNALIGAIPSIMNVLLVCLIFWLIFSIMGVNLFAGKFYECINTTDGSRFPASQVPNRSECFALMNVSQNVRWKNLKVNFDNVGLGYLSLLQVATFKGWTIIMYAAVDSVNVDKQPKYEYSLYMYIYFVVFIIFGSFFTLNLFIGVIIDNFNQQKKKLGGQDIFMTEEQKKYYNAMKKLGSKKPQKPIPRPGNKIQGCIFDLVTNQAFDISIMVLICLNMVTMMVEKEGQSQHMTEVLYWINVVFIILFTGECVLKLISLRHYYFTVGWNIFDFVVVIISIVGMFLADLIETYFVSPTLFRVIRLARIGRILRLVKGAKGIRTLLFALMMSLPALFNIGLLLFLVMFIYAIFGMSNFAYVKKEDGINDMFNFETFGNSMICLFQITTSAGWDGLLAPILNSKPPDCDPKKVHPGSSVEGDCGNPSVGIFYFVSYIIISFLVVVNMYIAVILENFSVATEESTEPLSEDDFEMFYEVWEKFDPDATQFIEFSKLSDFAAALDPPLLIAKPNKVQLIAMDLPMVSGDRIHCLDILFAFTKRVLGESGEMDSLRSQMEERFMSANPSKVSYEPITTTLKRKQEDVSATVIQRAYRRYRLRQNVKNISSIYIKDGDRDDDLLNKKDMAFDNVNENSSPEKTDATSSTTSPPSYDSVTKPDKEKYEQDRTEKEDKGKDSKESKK
measured.property: IC50

Examples from the recorded data:
molecule	observed.result
CNS(=O)(=O)c1ccc(-c2cncc(C(=O)N/N=C/c3cc(OC)ccc3F)n2)cn1 [Compound 134]	> 1 µM
CCOc1ccc(-c2cncc(C(=O)N/N=C/c3cncc(C(C)O)c3)n2)cn1 (centres unmarked) [Compound 24]	> 1 µM
CCOc1ccc(-c2cncc(C(=O)N/N=C/c3cc(CN)ccc3F)n2)cn1 [Compound 13]	> 1 µM

Prompt: I have this molecule here, CCOc1ccc(-c2nccc(C(=O)N/N=C/c3cc(OC)cnc3F)n2)cn1 [Compound 72] , and I need its recorded IC50.
Completion: > 1 µM

Prompt: I have this molecule here, CC(O)c1cccc(/C=N/NC(=O)c2cncc(-c3ccc(OC(F)F)nc3)n2)c1 (centres unmarked) [Compound 109] , and I need its recorded IC50.
Completion: > 1 µM

Prompt: I have this molecule here, CCOc1ccc(-c2nc(C(=O)N/N=C/c3cccn3C)cnc2O)cn1 [Compound 69] , and I need its recorded IC50.
Completion: > 1 µM

Prompt: I have this molecule here, CCOc1ccc(-c2cncc(C(=O)N/N=C/c3cc(OC4CNC4)ccc3F)n2)cn1 [Compound 20] , and I need its recorded IC50.
Completion: > 1 µM

###

Entries and their IC50
target: human sodium channels Nav 1.7 (Homo sapiens); experiment: Automated whole-cell voltage-clamp (ScreenPatch 384P) sodium current block, Nav 1.7; conditions: CHO cells stably expressing human Nav 1.7; inactivation step -40 mV 8 s, test step 0 mV (TP1A); eight concentrations; exposure at least five minutes; room temperature; read-out: Nav1.7 IC50

Examples from the recorded data:
compound	IC50
O=C(N/N=C/c1ccncc1)c1cncc(-c2ccc(OC(F)(F)F)nc2)n1	> 1000 nM
COc1ccc(O)c(/C=N/NC(=O)c2cncc(-c3ccc(OC(F)F)nc3)n2)c1	> 1000 nM
CC(C)Oc1ccc(F)c(/C=N/NC(=O)c2cncc(-c3ccc(OC4CC4)nc3)n2)c1	< 500 nM
CCOc1ccc(-c2cncc(C(=O)N/N=C/c3cc(O)cnc3F)n2)cn1	> 1000 nM
CC[S+]([O-])c1ccc(-c2cncc(C(=O)N/N=C/c3cc(OC)ccc3F)n2)cn1 (stereo not shown)	> 1000 nM

Prompt: I have this compound here, `COc1cc(/C=N/NC(=O)c2cncc(-c3ccc(OC(F)F)nc3)n2)cc(O)n1` , and I need its recorded IC50.
Completion: > 1000 nM

###

biological target: human sodium channels Nav 1.8 (Homo sapiens, UniProt Q9Y5Y9); assay: Automated whole-cell voltage-clamp (ScreenPatch 384P) sodium current block, Nav 1.8; conditions: CHO cells stably expressing human Nav 1.8; inactivation step -40 mV 8 s, test step 10 mV (TP1A); eight concentrations; exposure at least five minutes; room temperature; read-out: Nav1.8 IC50
pIC50: −log10 of the molar value.
measured.property: pIC50

compound	pIC50
COc1ccc(F)c(/C=N/NC(=O)c2cncc(-c3ccc(OCC4CNC4)nc3)n2)c1 [Compound 140]	< 6.00
CC(O)c1ccc(F)c(/C=N/NC(=O)c2cncc(-c3ccc(OC(F)F)nc3)n2)c1 (centres unmarked) [Compound 110]	> 6.30
CCOc1ccc(F)c(/C=N/NC(=O)c2cncc(-c3ccc(OC4CC4)nc3)n2)c1 [Compound 80]	> 6.30
CCOc1ccc(-c2cncc(C(=O)N/N=C/c3cc(OC4CNC4)cnc3F)n2)cn1 [Compound 34]	< 6.00
CCOc1ccc(-c2cncc(C(=O)N/N=C/c3cc(OC4CC4)ccc3F)n2)cn1 [Compound 6]	> 6.30
CCOc1ccc(-c2cncc(C(=O)N/N=C/c3cc(OC(C)C)ccc3F)n2)cn1 [Compound 5]	> 6.30
CN(C)c1ccc(F)c(/C=N/NC(=O)c2cncc(-c3ccc(OC(F)(F)F)nc3)n2)c1 [Compound 93]	> 6.30

Prompt: Report pIC50 for CCOc1ccc(-c2cncc(C(=O)N/N=C/c3cc(N(C)C)ccc3F)n2)cn1 [Compound 11] tested on human sodium channels Nav 1.8 (Homo sapiens, UniProt Q9Y5Y9).
Completion: > 6.30

###

target: human sodium channels Nav 1.8 (Homo sapiens); test: Automated whole-cell voltage-clamp (ScreenPatch 384P) sodium current block, Nav 1.8; details: CHO cells stably expressing human Nav 1.8; inactivation step -40 mV 8 s, test step 10 mV (TP1A); eight concentrations; exposure at least five minutes; room temperature; read-out: Nav1.8 IC50
pIC50: −log10 of the molar value.
Entries and their pIC50

molecule	pIC50
CCOc1ccc(-c2nc(C(=O)N/N=C/c3cccn3C)cnc2O)cn1	< 6.00
CNS(=O)(=O)c1ccc(-c2cncc(C(=O)N/N=C/c3cc(OC)ccc3F)n2)cn1	< 6.00
COc1ccc(F)c(/C=N/NC(=O)c2cncc(-c3ccc(OC(F)(F)F)nc3)n2)c1	> 6.30

Alright, here's another molecule for you.
Prompt: I have this molecule here, `CCOc1ccc(-c2cncc(C(=O)N/N=C/c3cc(S(N)(=O)=O)ccc3F)n2)cn1` , and I need its recorded pIC50.
Completion: < 6.00

###

target: UniProtKB Q15858; assay: Automated whole-cell voltage-clamp (ScreenPatch 384P) sodium current block, Nav 1.7; settings: CHO cells stably expressing human Nav 1.7; inactivation step -40 mV 8 s, test step 0 mV (TP1A); eight concentrations; exposure at least five minutes; room temperature; read-out: Nav1.7 IC50
pIC50: −log10 of the molar value.
measured.property: pIC50

Examples from the recorded data:
molecule	target.or.test.system	pIC50
CCOc1ccc(-c2cncc(C(=O)N/N=C/c3c[nH]nc3C)n2)cn1	UniProtKB Q15858	< 6.00
COc1ccc(F)c(/C=N/NC(=O)c2cncc(-c3ccc(OCCC4CN(C)C4)nc3)n2)c1	UniProtKB Q15858	< 6.00
COc1cnc(F)c(/C=N/NC(=O)c2cncc(-c3cnc(OC(F)F)cc3C)n2)c1	UniProtKB Q15858	> 6.30

Prompt: I have this molecule here, `CCOc1ccc(-c2cncc(C(=O)N/N=C/c3cc(N4CC(O)C4)ccc3F)n2)cn1` , and I need its recorded pIC50.
Completion: < 6.00

Prompt: I have this molecule here, `COc1ccc(C)c(/C=N/NC(=O)c2cncc(-c3ccc(OC(F)F)nc3)n2)c1` , and I need its recorded pIC50.
Completion: < 6.00

Prompt: I have this molecule here, `Cc1ccccc1/C=N/NC(=O)c1cncc(-c2ccc(OC(F)(F)F)nc2)n1` , and I need its recorded pIC50.
Completion: > 6.30

Prompt: I have this molecule here, CCOc1ccc(-c2cncc(C(=O)N/N=C/c3cc(C(C)O)ccn3)n2)cn1 (stereo not shown) , and I need its recorded pIC50.
Completion: < 6.00

Prompt: I have this molecule here, `CN(C)c1ccc(F)c(/C=N/NC(=O)c2cncc(-c3ccc(OC(F)F)nc3)n2)c1` , and I need its recorded pIC50.
Completion: < 6.00

Prompt: I have this molecule here, `CCOc1ccc(-c2cncc(C(=O)N/N=C/c3ccc(F)c(OC)c3)n2)cn1` , and I need its recorded pIC50.
Completion: 6.00 to 6.30

Prompt: I have this molecule here, `COc1cnc(F)c(/C=N/NC(=O)c2cncc(-c3ccc(OC4CNC4)nc3)n2)c1` , and I need its recorded pIC50.
Completion: < 6.00
